// data source = paper PMC2756588

Listing: SPOT intensity of selected binders
target-of-assay: T1, Bzz1-1, P38822
T1 sequence (P38822 478-572, looked up): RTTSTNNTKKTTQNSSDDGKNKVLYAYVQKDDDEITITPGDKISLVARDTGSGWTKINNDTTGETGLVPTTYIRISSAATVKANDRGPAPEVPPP
assay-summary: SPOT array
test-settings: median of control spots 4446
reported-metric: SPOT intensity

INSERT INTO measurements (binder, meas_value) VALUES
  ('IHTRRPSSTSQYLIR', 0),
  ('TYNRTAFQIPGDQSI', 2),
  ('QQNRPLPQLPNRNNR', 4),
  ('LKQRFFLMFPKSIIW', 0),
  ('RRLRDKYKLPIVDAD', 0);
